Test system: gray mold pathogen (Botrytis cinerea)
Experiment description: Gray mold antimicrobial test (growth inhibition rate)
Assay type: cell-based
Set-up: concentration or dose not given beside the values
Run conditions: Table 4; ppm: Ipflufenoquin 10, Cyflufenamid 2, Thiophamate-methyl 0.4, Iminoctadine acetate 0.08, Iminoctadine albesilate 0.4, Picarbutrazox 10, Prothioconazole 0.0032, Mefentrifluconazole 0.0006, Cymoxanil 10, Fludioxonil 0.016, Metyltetraprole 10, Fluxapyroxad 0.016, Fluopyram 0.4, Potassium phosphite 10, Fipronil 2, Chlorantraniliprole 0.016, Abamectin 0.016, Sulfoxaflor 10, Tebufenozide 0.016
Endpoint label: growth inhibition rate, component (II) alone (%)
Kindly answer with a numeric value in %, unit omitted.

Answered examples (5):
- Compound: "Cc1nc2c(F)c(F)ccc2cc1Oc1cccc(F)c1C(C)(C)O"
  Data value: 4
- Compound: "CC(=O)O.CC(=O)O.CC(=O)O.NC(N)=NCCCCCCCCNCCCCCCCCN=C(N)N [Iminoctadine acetate]"
  Data value: 56
- Compound: "Cc1cccc(-n2nnn(C)c2=O)c1COc1ccn(-c2ccc(Cl)cc2)n1"
  Data value: 52
- Compound: "CCCCCCCCCCCCc1ccc(S(=O)(=O)O)cc1.CCCCCCCCCCCCc1ccc(S(=O)(=O)O)cc1.CCCCCCCCCCCCc1ccc(S(=O)(=O)O)cc1.NC(N)=NCCCCCCCCNCCCCCCCCN=C(N)N [Iminoctadine albesilate]"
  Data value: 81
- Compound: "Cn1cc(C(=O)Nc2ccccc2-c2cc(F)c(F)c(F)c2)c(C(F)F)n1"
  Data value: 10

Noted for CC(O)(Cn1cncn1)c1ccc(Oc2ccc(Cl)cc2)cc1C(F)(F)F (stereo not shown) : its growth inhibition rate, component (II) alone reads 0

Noted for Cn1nnnc1/C(=N\OCc1cccc(NC(=O)OC(C)(C)C)n1)c1ccccc1 : its growth inhibition rate, component (II) alone reads 12

====

System: gray mold pathogen (Botrytis cinerea)
Experiment description: Gray mold antimicrobial test (growth inhibition rate)
Assay type: cell-based
Design: concentration or dose not given beside the values
Run conditions: Table 3; ppm: Ipflufenoquin 10, Cyflufenamid 10, Thiophamate-methyl 0.4, Iminoctadine acetate 0.08, Iminoctadine albesilate 0.08, Triflumizole 0.0032, Picarbutrazox 0.08, Prothioconazole 0.0032, Mefentrifluconazole 0.00064, Cymoxanil 10, Fludioxonil 0.016, Metyltetraprole 0.4, Florylpicoxamid 0.08, Fluxapyroxad 0.08, Fluopyram 0.4, Potassium phosphite 10, Fipronil 2, Chlorantraniliprole 0.016, Aba
Label 1.0 when growth inhibition rate, component (II) alone is at or above 6%; otherwise label 0.0.

- Molecule: "Cn1cc(C(=O)Nc2ccccc2-c2cc(F)c(F)c(F)c2)c(C(F)F)n1"
  Assayed system: "gray mold pathogen (Botrytis cinerea)"
  Label class: 1.0

// inclusive: growth inhibition rate, component (II) alone at least 6%? input: Cn1nnnc1/C(=N\OCc1cccc(NC(=O)OC(C)(C)C)n1)c1ccccc1
0.0

// inclusive: growth inhibition rate, component (II) alone at least 6%? input: COc1ccnc(C(=O)N[C@@H](C)C(=O)O[C@@H](C)C(c2ccc(F)cc2)c2ccc(F)cc2)c1OC(C)=O
1.0

// inclusive: growth inhibition rate, component (II) alone at least 6%? input: Cc1cccc(-n2nnn(C)c2=O)c1COc1ccn(-c2ccc(Cl)cc2)n1
0.0

// inclusive: growth inhibition rate, component (II) alone at least 6%? input: CC(O)(Cn1cncn1)c1ccc(Oc2ccc(Cl)cc2)cc1C(F)(F)F (centres unmarked)
0.0

// inclusive: growth inhibition rate, component (II) alone at least 6%? input: CC(=O)O.CC(=O)O.CC(=O)O.NC(N)=NCCCCCCCCNCCCCCCCCN=C(N)N [Iminoctadine acetate]
1.0

// inclusive: growth inhibition rate, component (II) alone at least 6%? input: Cc1nc2c(F)c(F)ccc2cc1Oc1cccc(F)c1C(C)(C)O
0.0
